Readings of MIC for the listed compounds
- Test system: Staphylococcus aureus
- Experiment Description: Minimum inhibitory concentration against Staphylococcus aureus ATCC 14154
- Type: functional

Smiles Repr | MIC (µg/mL)
N=C(S)NC[C@H]1CN(c2ccc(N3CCN(C(=O)/C=C/c4ccc5c(c4)OCO5)CC3)c(F)c2)C(=O)O1 | 1
C/C(S)=N/C[C@H]1CN(c2ccc(N3CCN(C(=O)/C=C/c4ccc(O)cc4)CC3)c(F)c2)C(=O)O1 | 0.5
C/C(S)=N/C[C@H]1CN(c2ccc(N3CCN(C(=O)/C=C/c4ccccc4)CC3)c(F)c2)C(=O)O1 | 2
